Data origin, for the record: patent US9434743B2

molecular target: human MetAP2 enzyme (Homo sapiens, UniProt P50579); test: MetAP2 enzyme assay, enzyme complexed with manganese ions; settings: MetAP2 Mn pIC50, MetAP2 enzyme complexed with manganese ions; Met-AMC substrate at Km
Sequence (P50579 whole entry): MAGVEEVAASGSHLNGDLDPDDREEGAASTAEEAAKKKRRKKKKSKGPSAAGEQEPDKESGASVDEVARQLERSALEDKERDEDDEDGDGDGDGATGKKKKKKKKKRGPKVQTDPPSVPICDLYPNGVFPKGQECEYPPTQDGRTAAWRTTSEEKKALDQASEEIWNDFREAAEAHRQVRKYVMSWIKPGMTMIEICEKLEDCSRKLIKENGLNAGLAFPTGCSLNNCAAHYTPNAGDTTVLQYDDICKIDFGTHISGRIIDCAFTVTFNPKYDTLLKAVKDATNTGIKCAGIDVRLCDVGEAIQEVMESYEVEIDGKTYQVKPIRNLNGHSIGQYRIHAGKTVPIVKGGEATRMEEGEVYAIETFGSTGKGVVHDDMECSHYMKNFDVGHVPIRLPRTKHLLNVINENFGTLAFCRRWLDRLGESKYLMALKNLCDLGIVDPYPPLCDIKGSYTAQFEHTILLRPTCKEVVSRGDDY
Below, each entry is listed alongside its reported pIC50.
In plain terms, pIC50 is the concentration in mol/L turned into minus its base-10 logarithm.

Answered cases to consult:
O=C(NC1CC1)c1c[nH]c(=O)c(-c2cc(C(F)(F)F)cc3[nH]ncc23)c1    7.90
COc1ccc(C)nc1-c1cc(C(F)(F)F)cc2[nH]ncc12    7.30
Cc1onc(N)c1-c1cc(C(F)(F)F)cc2[nH]ncc12    7.40
Cc1nn(CC(N)=O)cc1-c1cc(C(F)(F)F)cc2[nH]ncc12    8.40
Cn1c(-c2cc(C(F)(F)F)cc3[nH]ncc23)cc2ccccc21    7.00
FC(F)(F)c1cc(-c2cnn(Cc3ccncc3)c2)c2cn[nH]c2c1    8.20
Cc1nnc(-c2cccc(-c3cc(C(F)(F)F)cc4[nH]ncc34)c2)o1    8.10
Cc1nn(CCN)c(C)c1-c1cc(C(F)(F)F)cc2[nH]ncc12    7.90

Using the record for FC(F)(F)c1cc(-c2cnn(Cc3ccccn3)c2)c2cn[nH]c2c1 , report its pIC50.
8.60

Using the record for N#Cc1ncc(-c2cc(C(F)(F)F)cc3[nH]ncc23)cn1 , report its pIC50.
7.90

Using the record for Nc1ncc(-c2cc(C(F)(F)F)cc3[nH]ncc23)cc1C(=O)NCCO , report its pIC50.
8.10

Using the record for O=C(Cn1cncn1)NCc1ccccc1-c1cc(C(F)(F)F)cc2[nH]ncc12 , report its pIC50.
7.60

Using the record for O=C(NCCO)c1ccc(-c2cc(C(F)(F)F)cc3[nH]ncc23)cn1 , report its pIC50.
8.50

Using the record for CNc1ncc(-c2cc(C(F)(F)F)cc3[nH]ncc23)cn1 , report its pIC50.
8.20
